- experiment: gradient 5% acetonitrile 3 min, to 50% in 2 min, to 85% in 15 min, held 3 min, 100 µL/min
- reported_conditions: column: Zorbax Extend-C18 2.1 x 50 mm; eluents: water / acetonitrile, 0.1% formic acid
result_type: RP-LC retention time (s)

[[record]]
molecule = "Cc1nn(-c2ccccc2)c(C)c1S(=O)(=O)N1CCC(C(=O)Nc2ccc(C#N)cc2)CC1"
result_type = "RP-LC retention time"
endpoint_value = 938

[[record]]
molecule = "O=S(=O)(NCc1ccccc1)c1ccc2c(c1)-c1oncc1CO2"
result_type = "RP-LC retention time"
endpoint_value = 860

[[record]]
molecule = "Cc1nn(C)cc1CNC(=O)c1cnn2c(C(F)F)cc(-c3ccccc3)nc12"
result_type = "RP-LC retention time"
endpoint_value = 786

[[record]]
molecule = "O=C(c1ccco1)N1CCC(c2nc(-c3ccccc3)no2)C1 (centres undefined)"
result_type = "RP-LC retention time"
endpoint_value = 822

[[record]]
molecule = "Cc1ccc(Nc2c(-c3cccc(Br)c3)nc3cccc(C)n23)cc1"
result_type = "RP-LC retention time"
endpoint_value = 826

[[record]]
molecule = "COc1ccccc1CCC(=O)N1CCn2cnnc2C1"
result_type = "RP-LC retention time"
endpoint_value = 594

[[record]]
molecule = "CC1=C(c2ccccc2)S(=O)(=O)N=C1N1CCCN(C(=O)c2ccc(Cl)s2)CC1"
result_type = "RP-LC retention time"
endpoint_value = 896

[[record]]
molecule = "Cc1oc2ccn(Cc3cccc(F)c3)c(=O)c2c1C(=O)N(C)Cc1ccccc1"
result_type = "RP-LC retention time"
endpoint_value = 898

[[record]]
molecule = "Cc1nc(-c2cc(S(=O)(=O)N3CCC(C(=O)NCCc4cccs4)CC3)c(C)s2)no1"
result_type = "RP-LC retention time"
endpoint_value = 919

[[record]]
molecule = "Cc1ccc(-n2c(=O)c3c(cc(C)n3C)n(CC(=O)Nc3cc(C)ccc3C)c2=O)cc1"
result_type = "RP-LC retention time"
endpoint_value = 906

[[record]]
molecule = "CC(C)CC(NC(=O)c1ccc2c(c1)OCO2)C(=O)Nc1nc2ccccc2[nH]1 (centres undefined)"
result_type = "RP-LC retention time"
endpoint_value = 710

[[record]]
molecule = "Cc1cc2nn(CC(=O)NC3CCCCC3)c(=O)n2c(-c2ccccc2)n1"
result_type = "RP-LC retention time"
endpoint_value = 764

[[record]]
molecule = "Cc1ccc(N2CCC(NC(=O)c3cccc(N(C)C)c3)C2=O)cc1 (centres undefined)"
result_type = "RP-LC retention time"
endpoint_value = 931

[[record]]
molecule = "COc1ccc(OC)c(S(=O)(=O)N2CCCC(C(=O)N3CCC(C(N)=O)CC3)C2)c1 (centres undefined)"
result_type = "RP-LC retention time"
endpoint_value = 635

[[record]]
molecule = "CCC(=O)N1c2ccc(S(=O)(=O)CCC(=O)NC3CCN(Cc4ccccc4)CC3)cc2CC1C (centres undefined)"
result_type = "RP-LC retention time"
endpoint_value = 640

[[record]]
molecule = "CC(C)NC(=O)c1n[nH]c2c1CCCCCC2"
result_type = "RP-LC retention time"
endpoint_value = 754

[[record]]
molecule = "c1cc2c(cc1-c1nnc(C3CC3)o1)OCO2"
result_type = "RP-LC retention time"
endpoint_value = 781

[[record]]
molecule = "Cn1cc(C2=CCN(C(=O)Nc3ccc(F)cc3F)CC2)c2cccnc21"
result_type = "RP-LC retention time"
endpoint_value = 792

[[record]]
molecule = "COc1ccc(-c2nc3ncccn3c2Nc2ccc(C)c(C)c2)cc1"
result_type = "RP-LC retention time"
endpoint_value = 784

